Reference for the values: a melting point compilation (Tetko et al.; mined from patent text by program, amines drawn as free bases though some values may be those of a salt)

This listing pairs compounds with measured melting point.

{"compound": "CC(C)(C)OC(=O)N=C(c1ccc(C(=O)Nc2ccc(C(=O)NCCC(=O)OCc3ccccc3)cc2)cc1)N(C(=O)OC(C)(C)C)C(=O)OC(C)(C)C", "melting point": "164 to 165 °C"}
{"compound": "CS(=O)(=O)c1ccc(-c2cnn(-c3ccc(F)c(Cl)c3)c(=O)c2-c2ccc(F)cc2)cc1", "melting point": "155 to 157 °C"}
{"compound": "O=C(CCl)c1cc(Br)ccc1O", "melting point": "79 °C"}
{"compound": "CN(c1cccc2cc(C3=NCC(CC(N)=O)S3)[nH]c12)S(=O)(=O)c1cccs1 (stereo not drawn)", "melting point": "193 to 194 °C"}
{"compound": "COC(=O)[C@]1(C)Cc2c([nH]c3ccc(Br)cc23)[C@@H](c2cccc(O)c2)N1 (racemic)", "melting point": "240 to 241 °C"}
{"compound": "Cc1cc(C2CC2)nc(N)n1", "melting point": "113 to 115 °C"}
{"compound": "CCCCC(Oc1c(Br)cc(-c2ccc(-c3c(Cc4ccccc4)oc4ccccc34)cc2)cc1Br)C(=O)O (stereo not drawn)", "melting point": "75 to 76 °C"}
{"compound": "CCCC(C)(Oc1ccc(CC(=O)Nc2cc(C)cc(C)c2)cc1)C(=O)O (stereo not drawn)", "melting point": "145 to 147 °C"}
